# maps each entry to its IC50
# System: GABA-A receptor; anion channel
# Protocol notes: Inhibition of 0.6 nM [3H]flunitrazepam binding to GABA-A central benzodiazepine receptor of rat forebrain membrane
Experimental endpoint: IC50 (nM)

Structure as smiles: CCOc1nc2nc(C(=O)c3ccccc3)cn2c2c1CCC2
System: GABA-A receptor; anion channel
Experimental endpoint: IC50
Measurement units: nM
Bound type: >
Experimental result: 10000
--
Structure as smiles: CCc1ccc2c(c1)c(OC)cc1nc(C(=O)c3ccccn3)cn12
System: GABA-A receptor; anion channel
Experimental endpoint: IC50
Measurement units: nM
Bound type: =
Experimental result: 9
--
Structure as smiles: COC(=O)c1cn2c(n1)sc1ccccc12
System: GABA-A receptor; anion channel
Experimental endpoint: IC50
Measurement units: nM
Bound type: =
Experimental result: 60
--
Structure as smiles: CCc1cc(OC)nc2nc(C(=O)c3ccccc3)cn12
System: GABA-A receptor; anion channel
Experimental endpoint: IC50
Measurement units: nM
Bound type: =
Experimental result: 295
--
Structure as smiles: CSc1nc2nc(C(=O)c3ccccc3)cn2c2c1CSCC2
System: GABA-A receptor; anion channel
Experimental endpoint: IC50
Measurement units: nM
Bound type: =
Experimental result: 24
--
Structure as smiles: CCc1ccc2c(c1)c(OC)c(C)c1nc(C(=O)c3ccccc3)cn12
System: GABA-A receptor; anion channel
Experimental endpoint: IC50
Measurement units: nM
Bound type: =
Experimental result: 7
--
Structure as smiles: O=C(c1ccccc1)c1cn2c(n1)sc1ccccc12
System: GABA-A receptor; anion channel
Experimental endpoint: IC50
Measurement units: nM
Bound type: =
Experimental result: 85
